Measurement Protocol: Tmax in NMRI mouse at 10 mg/kg, ip measured up to 6 hrs on day 1 by LC-MS/MS analysis
Format: ADME, organism-based
Recorded Conditions: in vivo

| Line Notation | Tmax |
| --- | --- |
| Cn1nccc1Nc1nc(NCC(F)(F)F)c2nc[nH]c2n1 | 15 min |
